tested on: Human immunodeficiency virus type 1 reverse transcriptase (Human immunodeficiency virus 1), Q72547 [Y181C]; experiment: Percent inhibitory activity against Y181C HIV type I reverse transcriptase at a concentration of 1 uM
Endpoint Name: inhibition (%)
Just the number in %, nothing appended.

C=CCOCc1ccnc2c1NC(=O)c1cccnc1N2C1CC1 :: 29
CCN1c2ncccc2C(=O)Nc2c(CO)cc(O)nc21 :: 25
O=C1Nc2c(COc3ccccc3)ccnc2N(C2CC2)c2ncccc21 :: 26
Cc1ccc(OCc2ccnc3c2NC(=O)c2cccnc2N3C2CC2)cc1 :: 33
Cc1ccccc1OCc1ccnc2c1NC(=O)c1cccnc1N2C1CC1 :: 28

**Q:** State its inhibition: CCN1c2ncccc2C(=O)Nc2c(C3OCCCO3)cc(-c3cccc(OC)c3)nc21
**A:** 7

**Q:** State its inhibition: O=C1Nc2c(COCc3ccccc3)ccnc2N(C2CC2)c2ncccc21
**A:** 37

**Q:** State its inhibition: O=C1Nc2c(Cn3ccnc3)ccnc2N(C2CC2)c2ncccc21
**A:** 20

**Q:** State its inhibition: O=C1Nc2c(COc3ccc([N+](=O)[O-])cc3)ccnc2N(C2CC2)c2ncccc21
**A:** 12

----------
system: Human immunodeficiency virus type 1 reverse transcriptase (Human immunodeficiency virus 1), Q72547 [Y181C]; experiment: Percent inhibitory activity against Y181C HIV type I reverse transcriptase at a concentration of 1 uM
The entries below are paired with their reported inhibition.
Just the number in %, nothing appended.

Solved cases below.
O=C1Nc2c(COCCCc3ccccc3)ccnc2N(C2CC2)c2ncccc21 :: 20
O=C1Nc2c(CN3CCCCC3)ccnc2N(C2CC2)c2ncccc21 :: 20

**Q:** State its inhibition: O=C1Nc2c(Cc3ccccc3)ccnc2N(C2CC2)c2ncccc21
**A:** 8

**Q:** State its inhibition: CCN1c2ncccc2C(=O)Nc2c(C=O)cc(O)nc21
**A:** 6

**Q:** State its inhibition: Cc1ccc(Cc2ccnc3c2NC(=O)c2cccnc2N3C2CC2)c(O)c1
**A:** 29

**Q:** State its inhibition: CCN1c2ncccc2C(=O)Nc2c(COCc3ccccc3)cc(-c3cccc(OC)c3)nc21
**A:** 12

**Q:** State its inhibition: CCN1c2ncccc2C(=O)Nc2c(CO)cc(-c3cccc(OC)c3)nc21
**A:** 0

**Q:** State its inhibition: CCOC(=O)CCc1ccnc2c1NC(=O)c1cccnc1N2C1CC1
**A:** 11

**Q:** State its inhibition: O=C1Nc2c(COc3ccccc3O)ccnc2N(C2CC2)c2ncccc21
**A:** 42

**Q:** State its inhibition: CCOCc1ccnc2c1NC(=O)c1cccnc1N2C1CC1
**A:** 29

----------
molecular target: Human immunodeficiency virus type 1 reverse transcriptase (Human immunodeficiency virus 1, UniProt Q72547, Y181C); assay: Compound was evaluated for inhibition of Y181C HIV type I reverse transcriptase.
Please respond with met when measured IC50 is strictly beneath 1 µM, and with not met in all other cases.

CCN1c2ncccc2C(=O)Nc2c(COCc3ccccc3)cc(=O)[nH]c21 :: not met

**Q:** Quick check: IC50 of CCN1c2ncccc2C(=O)Nc2c(Cc3ccccc3)cc(=O)[nH]c21 under 1 µM?
**A:** not met

**Q:** Quick check: IC50 of O=C1Nc2c(CNc3ccccc3)ccnc2N(C2CC2)c2ncccc21 under 1 µM?
**A:** not met

**Q:** Quick check: IC50 of O=C1Nc2c(Cc3ccccc3O)ccnc2N(C2CC2)c2ncccc21 under 1 µM?
**A:** not met

**Q:** Quick check: IC50 of CCN1c2ncccc2C(=O)Nc2c(C=O)cc(-c3cccc(OC)c3)nc21 under 1 µM?
**A:** met

**Q:** Quick check: IC50 of CCNc1ccc(OCc2ccnc3c2NC(=O)c2cccnc2N3C2CC2)cc1 under 1 µM?
**A:** met

**Q:** Quick check: IC50 of O=C1Nc2c(COc3ccccc3)ccnc2N(C2CC2)c2ncccc21 under 1 µM?
**A:** not met

----------
The entries below are paired with their reported inhibition.
biological target: Human immunodeficiency virus type 1 reverse transcriptase (Human immunodeficiency virus 1); assay: Percent inhibitory activity against wild type (WT) HIV type I reverse transcriptase at a concentration of 1 uM
Just the number in %, nothing appended.

O=C1Nc2c(COCc3ccccc3)ccnc2N(C2CC2)c2ncccc21 :: 67
O=C1Nc2c(COc3ccc([N+](=O)[O-])cc3)ccnc2N(C2CC2)c2ncccc21 :: 43
Cc1ccnc2c1NC(=O)c1cccnc1N2C1CC1 :: 85

**Q:** State its inhibition: O=C1Nc2c(Cc3ccccc3)ccnc2N(C2CC2)c2ncccc21
**A:** 73

**Q:** State its inhibition: CCOCc1ccnc2c1NC(=O)c1cccnc1N2C1CC1
**A:** 41

**Q:** State its inhibition: O=C1Nc2c(Cn3ccnc3)ccnc2N(C2CC2)c2ncccc21
**A:** 13

**Q:** State its inhibition: O=C1Nc2c(Cc3ccccc3O)ccnc2N(C2CC2)c2ncccc21
**A:** 75

----------
tested on: Human immunodeficiency virus type 1 reverse transcriptase (Human immunodeficiency virus 1), Q72547 [Y181C]; test: Percent inhibitory activity against Y181C HIV type I reverse transcriptase at a concentration of 1 uM
Endpoint Name: inhibition (%)
Just the number in %, nothing appended.

O=C1Nc2c(CSc3ccccc3)ccnc2N(C2CC2)c2ncccc21 :: 14
O=C1Nc2c(Cc3ccccc3O)ccnc2N(C2CC2)c2ncccc21 :: 50
O=C1Nc2c(CN3CCOCC3)ccnc2N(C2CC2)c2ncccc21 :: 21
CCN1c2ncccc2C(=O)Nc2c(Cc3ccccc3)cc(O)nc21 :: 42
CCNc1ccc(OCc2ccnc3c2NC(=O)c2cccnc2N3C2CC2)cc1 :: 58
CCN1c2ncccc2C(=O)Nc2c(COc3ccccc3)cc(O)nc21 :: 20
COc1ccc(OCc2ccnc3c2NC(=O)c2cccnc2N3C2CC2)cc1 :: 41
O=C1Nc2c(COCCc3ccccc3)ccnc2N(C2CC2)c2ncccc21 :: 28
O=C(O)/C=C/c1ccnc2c1NC(=O)c1cccnc1N2C1CC1 :: 0
CCN1c2ncccc2C(=O)Nc2c(Cc3ccccc3)cc(-c3cccc(OC)c3)nc21 :: 15

**Q:** State its inhibition: O=C1Nc2c(CO)ccnc2N(C2CC2)c2ncccc21
**A:** 4

**Q:** State its inhibition: CCN1c2ncccc2C(=O)Nc2c(COCc3ccccc3)cc(OC)nc21
**A:** 26

**Q:** State its inhibition: N#Cc1ccc(OCc2ccnc3c2NC(=O)c2cccnc2N3C2CC2)cc1
**A:** 11

**Q:** State its inhibition: O=C1Nc2c(COc3ccccc3Cl)ccnc2N(C2CC2)c2ncccc21
**A:** 20

**Q:** State its inhibition: CCN1c2ncccc2C(=O)Nc2c(C3OCCCO3)cc(O)nc21
**A:** 0

**Q:** State its inhibition: C=Cc1ccnc2c1NC(=O)c1cccnc1N2C1CC1
**A:** 16

**Q:** State its inhibition: O=C1Nc2c(/C=C/c3ccccc3)ccnc2N(C2CC2)c2ncccc21
**A:** 25

**Q:** State its inhibition: CCN1c2ncccc2C(=O)Nc2c(Cc3ccccc3)cc(OC)nc21
**A:** 0

**Q:** State its inhibition: O=C(O)CCc1ccnc2c1NC(=O)c1cccnc1N2C1CC1
**A:** 8

**Q:** State its inhibition: CCN1c2ncccc2C(=O)Nc2c(C=O)cc(OC)nc21
**A:** 38

**Q:** State its inhibition: CCOC(=O)/C=C/c1ccnc2c1NC(=O)c1cccnc1N2C1CC1
**A:** 22

**Q:** State its inhibition: CCN1c2ncccc2C(=O)Nc2c(COc3ccccc3)cc(-c3cccc(OC)c3)nc21
**A:** 37

**Q:** State its inhibition: O=C1Nc2c(Cn3cccn3)ccnc2N(C2CC2)c2ncccc21
**A:** 5

**Q:** State its inhibition: CCN1c2ncccc2C(=O)Nc2c(C3OCCCO3)cc(OC)nc21
**A:** 22

**Q:** State its inhibition: O=C1Nc2c(CNc3ccccc3)ccnc2N(C2CC2)c2ncccc21
**A:** 41

**Q:** State its inhibition: Cc1cccc(OCc2ccnc3c2NC(=O)c2cccnc2N3C2CC2)c1
**A:** 9

**Q:** State its inhibition: CCN1c2ncccc2C(=O)Nc2c(CO)cc(OC)nc21
**A:** 24

**Q:** State its inhibition: Nc1ccc(OCc2ccnc3c2NC(=O)c2cccnc2N3C2CC2)cc1
**A:** 49

**Q:** State its inhibition: O=C1Nc2c(CSCc3ccccc3)ccnc2N(C2CC2)c2ncccc21
**A:** 28

**Q:** State its inhibition: O=C1Nc2c(CC3=CCNC3)ccnc2N(C2CC2)c2ncccc21
**A:** 26

**Q:** State its inhibition: CCN1c2ncccc2C(=O)Nc2c(C=O)cc(-c3cccc(OC)c3)nc21
**A:** 63

**Q:** State its inhibition: O=C1Nc2c(CN3CCCC3)ccnc2N(C2CC2)c2ncccc21
**A:** 16

----------
target: Human immunodeficiency virus type 1 reverse transcriptase (Human immunodeficiency virus 1) (UniProt Q72547); assay: Percent inhibitory activity against wild type (WT) HIV type I reverse transcriptase at a concentration of 1 uM
Label fulfilled for high-side inhibition (at or above 60%) and not fulfilled for low-side inhibition (below it).

Field: example entries. Status: answers known.
N#Cc1ccc(OCc2ccnc3c2NC(=O)c2cccnc2N3C2CC2)cc1 :: not fulfilled
CCN1c2ncccc2C(=O)Nc2c(COCc3ccccc3)cc(-c3cccc(OC)c3)nc21 :: not fulfilled
CCN1c2ncccc2C(=O)Nc2c(COc3ccccc3)cc(OC)nc21 :: not fulfilled
CCN1c2ncccc2C(=O)Nc2c(COc3ccccc3)cc(O)nc21 :: not fulfilled

**Q:** Check the entry CCN1c2ncccc2C(=O)Nc2c(CO)cc(OC)nc21 : does inhibition equal or exceed 60%?
**A:** fulfilled

**Q:** Check the entry CCN1c2ncccc2C(=O)Nc2c(COCc3ccccc3)cc(OC)nc21 : does inhibition equal or exceed 60%?
**A:** not fulfilled

**Q:** Check the entry O=C1Nc2c(COc3ccccc3)ccnc2N(C2CC2)c2ncccc21 : does inhibition equal or exceed 60%?
**A:** fulfilled

**Q:** Check the entry CCNc1ccc(OCc2ccnc3c2NC(=O)c2cccnc2N3C2CC2)cc1 : does inhibition equal or exceed 60%?
**A:** fulfilled

**Q:** Check the entry CCN1c2ncccc2C(=O)Nc2c(Cc3ccccc3)cc(O)nc21 : does inhibition equal or exceed 60%?
**A:** fulfilled
